# protein stability index values compiled below
protocol_details: protein stability index of a GFP-peptide fusion (yeast GPS) (PSI 1-4); higher = more stable; sorted into four equal gates, so the index is relative within each strain
cond: pdr5∆
Please give the numeric answer without any surrounding text.

Known results for sequences:
[
  {
    "ordered_residues": "TVQSERAFQKQPHIFNN [RPS11A]",
    "value_measured": 2.58
  },
  {
    "ordered_residues": "PRSPGRSPTRRLELLQL [SMC4]",
    "value_measured": 2.12
  }
]

Entry FITRLAQGLLHLGKGTM [RPN1] ; protein stability index = 2.99

Entry TVKRGAAGIWTCSCCKK [RPL43A] ; protein stability index = 1.74

Entry NKLVMKSKFNKSNRSYS [GAL11] ; protein stability index = 2.99
